koff for assorted binders
target: T1, ANTIBODY EXPRESSION CONTROL; test: SPR Biacore, expression control
T1 construct: also called mouse anti-canine antibody (capture reagent of the expression control ELISA)
The response must be a number in s⁻¹ with no trailing unit.

Measured koff, Mu_02D09_VL (SEQ ID NO: 33)_W94A (antibody, V domains shown) VH: EVQLVESGGGLVKPGGSLTLSCAASGFTFSDYGMHWLRQAPEKGLEWVAYISSGSRAVFFADTVKGRFTISRDNAKNTLFLQMTSLRSDDTAMYYCARDRYDGRGFAYWGQGTLVTVSA VL: DIVLTQSPATLSVTPGDSVSLSCRASQSISNNLHWYQQTSHESPRLLITYASQSISGIPSRFSGSGSGTDFTLSINSVETEDFGMYFCQQSNSAPLTFGAGTKLELKR : 3.16e-05

Next:
Measured koff, Mu_09E09_VL (SEQ ID NO: 37)_L94A (antibody, V domains shown) VH: DVKLVESGEGLVKPGGSLKLSCAASGFTFSSYAMSWVRQTPEKRLEWVAYISSGGDYIYYADTVKGRFTISRDNARNTLYLQMSSLKSEDTAMYYCTRDPITGTFAYWGQGTLVTVSA VL: DLQMTQTTSSLSASLGDRVTISCRASQDINNYLNWYQQKPDGTVKLLIYYTSTLHSGVPSRFSGSGSGTDYSLTISNLEQEDIATYFCQQGNTAPWTFGGGTKLEIKR : 7.63e-05

Measured koff, Mu_02D09_VH (SEQ ID NO: 31)_R104A (antibody, V domains shown) VH: EVQLVESGGGLVKPGGSLTLSCAASGFTFSDYGMHWLRQAPEKGLEWVAYISSGSRAVFFADTVKGRFTISRDNAKNTLFLQMTSLRSDDTAMYYCARDRYDGAGFAYWGQGTLVTVSA VL: DIVLTQSPATLSVTPGDSVSLSCRASQSISNNLHWYQQTSHESPRLLITYASQSISGIPSRFSGSGSGTDFTLSINSVETEDFGMYFCQQSNSWPLTFGAGTKLELKR : 2.41e-05
